Target: T1, recombinant human PVRIG-human IgG1 Fc fusion protein (human)
T1 construct: no linker is told; also called human PVRIG-Fc fusion protein
T1 sequence (chain, as listed by the source limits assumed): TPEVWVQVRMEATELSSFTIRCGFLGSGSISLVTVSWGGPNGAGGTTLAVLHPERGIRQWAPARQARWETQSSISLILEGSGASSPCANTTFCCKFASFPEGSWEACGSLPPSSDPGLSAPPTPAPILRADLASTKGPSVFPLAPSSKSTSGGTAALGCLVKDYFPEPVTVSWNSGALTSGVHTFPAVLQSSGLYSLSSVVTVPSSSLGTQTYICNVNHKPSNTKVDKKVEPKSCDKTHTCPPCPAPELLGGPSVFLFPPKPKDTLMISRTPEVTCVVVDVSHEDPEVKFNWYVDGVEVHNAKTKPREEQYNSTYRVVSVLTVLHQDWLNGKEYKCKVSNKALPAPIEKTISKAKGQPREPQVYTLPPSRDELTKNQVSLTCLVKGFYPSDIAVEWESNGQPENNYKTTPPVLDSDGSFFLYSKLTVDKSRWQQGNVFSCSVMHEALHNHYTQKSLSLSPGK
Experiment: ELISA, plate coated with human PVRIG-human IgG1 Fc at 1.0 µg/ml, HRP goat anti-mouse IgG, OD450
measurement label: EC50 (read off the curve)

Examples from the recorded data:
- Antibody 4 (antibody, V domains shown, Murine monoclonal antibody from hybridoma ascites; Used AF647-labelled in several flow cytometry assays; also called murine antibody (Antibody 4); murine Antibody 4) VH: QVQLQQSGAELVKPGASVKISCKATGYTFSSFSIEWVKQRPGHGLAWIGEILPGSNSTNYNEKFKGKATFTADTSSNTAYMQLSSLTSEDSAVYYCSSYWFAYWGQGTLVTVSA VL: DIVMTQSPSSLSVSAGEKVTMSCKSSQSLLNSGNQKNYLAWYQQKPGQPPKLLIYGASTRESGVPDRFTGSGSGTDFTLTISSVQAEDLAVYYCQNAHSYPPTFAAGTKLELK: ~0.02 µg/mL
- Antibody 1 (antibody, V domains shown, Murine monoclonal antibody from hybridoma ascites, purified on Protein G; also called murine antibody Antibody 1) VH: QVQLQQSGAELMKPGASVKISCKATGYTFSTFAIDWIKQRPGPGLAWIGEILPGINNTNYNEKFKGKATFTADTSSNTAYMHLSSLTSEDSAVYYCSTYWFAYWGQGTLVTVSA VL: DIVMTQSPSSLSVSAGEKVTMTCKSSQSLLNSGNQKNYLAWYQQKPGQPPKLLMYGASTRESGVPDRFTGSGSGTDFTLTISSVQAEDLAVYYCQNAHSYPPTFGAGTKLELK: ~0.02 µg/mL
- Antibody 2 (antibody, V domains shown, Murine monoclonal antibody from hybridoma ascites; also called murine antibody Antibody 2) VH: QVQLQQSGAELTKPGASVKISCKATGYTFSTFAIDWIKQRPGHGLAWIGEILPGGNNTNYNEKFKGKATFTADTSSNTAYMHLSSLTSEDSAVYYCSTYWFAYWGQGTLVTVSA VL: DIVMTQSPSSLSVSAGEKVTMSCKSSQSLLNSGNQKNYLAWYQQKPGQPPKLLMYGASTRESGVPDRFTGSGSGTDFTLTISSVQAEDLAVYYCQNAHSYPPAFGAGTKLELK: ~0.03 µg/mL

Now look at this entry.
Ask: Query (binder): Antibody 3 (antibody, V domains shown, Murine monoclonal antibody from hybridoma ascites; also called murine antibody Antibody 3) VH: EVQLQQSGPELVKPGASMKISCKASGYSFTAYTMNWVKQSHGKNLEWIGLINPYNGGTSYNQKFKGKATLTGDKSSSTAYMELLSVTSEDSAVYFCAREGNYYGSRGDFDYWGQGTTLTVSS VL: DILLTQSPAILSVSPGERVSFSCRASQTIVTNILWYQQRTNGSPRLLIRYASESISGIPSRFSGSGSGTDFTLSINSVESEDIAHYYCQQSHSWPFTFGSGTKLEIK ; field requested: EC50 (read off the curve)
Reply: ~0.02 µg/mL
